- System: HDAC1 (Homo sapiens, UniProt Q13547)
- Sequence (Q13547 whole entry): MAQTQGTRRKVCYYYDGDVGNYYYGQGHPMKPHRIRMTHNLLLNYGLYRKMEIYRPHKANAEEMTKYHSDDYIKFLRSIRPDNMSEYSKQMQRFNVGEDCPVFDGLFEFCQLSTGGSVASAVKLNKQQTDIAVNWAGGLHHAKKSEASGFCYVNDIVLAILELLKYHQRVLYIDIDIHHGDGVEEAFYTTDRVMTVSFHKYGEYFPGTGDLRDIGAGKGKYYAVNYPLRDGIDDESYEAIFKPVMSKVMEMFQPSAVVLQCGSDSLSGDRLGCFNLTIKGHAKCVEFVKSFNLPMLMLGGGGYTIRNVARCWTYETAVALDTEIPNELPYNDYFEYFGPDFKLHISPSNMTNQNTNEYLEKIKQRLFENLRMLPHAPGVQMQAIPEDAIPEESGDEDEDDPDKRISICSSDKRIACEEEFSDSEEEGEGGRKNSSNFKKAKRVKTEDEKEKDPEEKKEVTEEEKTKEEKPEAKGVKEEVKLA
Recorded Metric: IC50
# do not omit the unit; it follows the number

Form: compound = O=C(CCCCCCNC(=O)c1cc(OCCc2ccccc2)c2ccccc2n1)NO [SDFZ-8] ; IC50 = 0.4 nM

---

- System: HDAC4 (Homo sapiens, UniProt P56524)
- Construct: purchased BPS BIOSCIENCE Inc 50004
- Sequence (P56524 whole entry): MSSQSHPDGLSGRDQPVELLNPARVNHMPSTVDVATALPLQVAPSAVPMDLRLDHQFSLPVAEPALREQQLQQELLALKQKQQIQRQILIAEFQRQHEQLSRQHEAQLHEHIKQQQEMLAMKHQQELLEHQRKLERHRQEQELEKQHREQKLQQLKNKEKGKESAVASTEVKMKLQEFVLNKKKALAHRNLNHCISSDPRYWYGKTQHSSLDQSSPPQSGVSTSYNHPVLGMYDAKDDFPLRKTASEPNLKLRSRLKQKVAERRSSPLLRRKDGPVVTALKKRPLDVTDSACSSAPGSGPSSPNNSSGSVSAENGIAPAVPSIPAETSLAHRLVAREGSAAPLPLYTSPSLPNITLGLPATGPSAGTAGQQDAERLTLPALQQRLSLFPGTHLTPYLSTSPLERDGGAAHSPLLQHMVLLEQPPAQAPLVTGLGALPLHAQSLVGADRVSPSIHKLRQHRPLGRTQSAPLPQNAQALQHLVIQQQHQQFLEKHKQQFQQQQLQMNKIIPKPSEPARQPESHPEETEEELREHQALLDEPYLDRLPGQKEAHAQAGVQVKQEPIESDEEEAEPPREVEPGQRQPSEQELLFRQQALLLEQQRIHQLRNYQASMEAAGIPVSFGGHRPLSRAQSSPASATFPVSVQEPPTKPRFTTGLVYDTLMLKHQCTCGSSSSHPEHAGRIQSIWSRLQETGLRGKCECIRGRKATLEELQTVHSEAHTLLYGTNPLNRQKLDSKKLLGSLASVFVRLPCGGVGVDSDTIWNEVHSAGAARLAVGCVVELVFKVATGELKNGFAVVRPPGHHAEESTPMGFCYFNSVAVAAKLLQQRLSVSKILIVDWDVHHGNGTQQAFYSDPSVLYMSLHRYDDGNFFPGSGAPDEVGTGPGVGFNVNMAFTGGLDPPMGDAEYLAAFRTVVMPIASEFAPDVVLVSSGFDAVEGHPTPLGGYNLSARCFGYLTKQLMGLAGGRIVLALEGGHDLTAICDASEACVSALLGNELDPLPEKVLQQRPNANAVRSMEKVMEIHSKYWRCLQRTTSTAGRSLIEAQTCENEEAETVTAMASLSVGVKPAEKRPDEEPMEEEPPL
- Method: HDACs enzymatic assay HDAC4
- Format: biochemical
- Condition Info: Class IIa
pIC50: −log10 of the molar value.
Recorded Metric: pIC50

Form: compound = O=C(CCCCCCNC(=O)c1cc(OCCc2ccccc2)c2ccccc2n1)NO ; pIC50 = < 5.00
